- target.under.test: PKR WT (Homo sapiens)
- Sequence (P30613 whole entry): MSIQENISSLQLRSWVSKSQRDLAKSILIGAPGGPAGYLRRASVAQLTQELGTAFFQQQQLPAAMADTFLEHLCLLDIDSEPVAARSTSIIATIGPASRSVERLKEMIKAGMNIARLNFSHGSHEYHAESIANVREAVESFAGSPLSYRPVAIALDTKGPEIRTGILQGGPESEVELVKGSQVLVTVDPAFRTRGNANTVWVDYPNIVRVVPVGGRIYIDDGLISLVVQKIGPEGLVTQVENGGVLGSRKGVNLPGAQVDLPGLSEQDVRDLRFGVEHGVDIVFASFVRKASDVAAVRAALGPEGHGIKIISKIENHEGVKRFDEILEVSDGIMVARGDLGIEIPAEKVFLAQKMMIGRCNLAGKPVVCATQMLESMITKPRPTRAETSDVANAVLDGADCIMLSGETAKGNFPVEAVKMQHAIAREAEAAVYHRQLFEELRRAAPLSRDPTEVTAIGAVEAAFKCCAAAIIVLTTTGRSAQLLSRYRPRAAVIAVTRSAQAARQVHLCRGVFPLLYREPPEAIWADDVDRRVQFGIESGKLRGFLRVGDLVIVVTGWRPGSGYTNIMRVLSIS
- method.summary: PKR WT cell based AC50 assay
- recorded.conditions: wild type PKR
metric: AC50

// worked examples, AC50 included
# compound, target.under.test, AC50
rows = [
    ("O=C(c1ccc(NS(=O)(=O)c2cccc3scnc23)cc1)N1CCC(O)(CCC(F)=C(F)F)CC1", "PKR WT (Homo sapiens)", "101 to 1000 nM"),
    ("O=C(c1ccc(NS(=O)(=O)c2cccc3c(O)ncnc23)cc1)N1CCC(O)(CCC(F)(F)F)CC1", "PKR WT (Homo sapiens)", "101 to 1000 nM"),
]

Prompt: Identify AC50 associated with the compound Cc1nc(F)ccc1C1(O)CCN(C(=O)c2ccc(NS(=O)(=O)c3cccc4cccnc34)cc2)CC1
Completion: < 100 nM

Prompt: Identify AC50 associated with the compound O=C(c1ccc(NS(=O)(=O)c2cccc3cccnc23)c(F)c1)N1CCC(O)(c2ccccc2Cl)CC1
Completion: < 100 nM

Prompt: Identify AC50 associated with the compound Nc1nc2c(S(=O)(=O)Nc3ccc(C(=O)N4CCC(O)(CCCC(F)(F)F)CC4)cc3)cccc2s1
Completion: < 100 nM

Prompt: Identify AC50 associated with the compound O=C(c1ccc(NS(=O)(=O)c2cccc3nccnc23)cc1)N1CCC(O)(c2ccccc2Cl)CC1
Completion: < 100 nM

Prompt: Identify AC50 associated with the compound O=C(c1ccc(NS(=O)(=O)c2cccc3cccnc23)cc1)N1CCC(O)(CCC(F)F)CC1
Completion: < 100 nM
